# Test system: primary rat microglia
# protocol.notes: Cell toxicity (dead cells, size <150 μm2) in coated fibrin (cFib) assay
# measurement.conditions: read-out: Cell Toxicity IC50 (uM) [cFib assay]; cFib assay; Table 6
experimental.readout: IC50

{"columns": ["compound", "test.value"],
 "data": [
  ["CCC(=O)OCC(=O)[C@@]1(OC(=O)CC)[C@H](C)C[C@H]2[C@H]3[C@H]([C@@H](O)C[C@@]21C)[C@@]1(C)C=CC(=O)C=C1C[C@H]3Cl [Alclometazone dipropionate, reference compound]", "> 20 µM"]
]}

----------
# Test system: fibrin-induced microglia activation
# protocol.notes: Image-based assay of fibrin-induced microglia activation (HTS and dose response)
# Type: cell-based, rat
Counter-ions that a name gives are not always drawn.
Please mark Fulfilled if the recorded Fibrin Selectivity is equal to or greater than 6, and Not fulfilled if it falls below.

{"columns": ["molecule", "qualitative.label"],
 "data": [
  ["COc1ccccc1N1CCN(CC(O)COc2cccc3ccccc23)CC1 (stereo not drawn) [Naftopidil dihydrochloride, reference compound]", "Not fulfilled"],
  ["CCOC(=O)O[C@]1(C(=O)COC(=O)CC)CC[C@H]2[C@@H]3CCC4=CC(=O)C=C[C@]4(C)[C@H]3[C@@H](O)C[C@@]21C [Prednicarbate, reference compound]", "Fulfilled"],
  ["c1ccc2c(c1)OCC(C1=NCCN1)O2 (stereo not drawn) [Idazoxan hydrochloride, reference compound]", "Not fulfilled"],
  ["CC(NCCc1ccc(O)cc1)C(O)c1ccc(O)cc1 (stereo not drawn) [Ritodrine hydrochloride, reference compound]", "Fulfilled"],
  ["NCCc1cc[nH]n1 [Betazole hydrochloride, reference compound]", "Not fulfilled"]
]}

----------
# System: primary rat microglia
# protocol.notes: Cell toxicity (dead cells, size <150 μm2) in coated fibrin (cFib) assay;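 as to Fibrin % cell toxicity: share of dead cells sized under 150 µm2 at 10 µM in fibrin-stimulated microglia HTS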
# measurement.conditions: primary microglia HTS, fibrin assay, dead cells (size <150 μm2), compounds at 10 μM
Where a name gives a salt, the structure may show the parent alone.
experimental.readout: Fibrin % cell toxicity

{"columns": ["molecule", "target.or.system", "test.value"],
 "data": [
  ["CCN(CC)C(=O)c1cccc(C)c1 [Deet, Diethyltoluamide]", "primary rat microglia", "0%"],
  ["Cc1onc(-c2c(Cl)cccc2Cl)c1C(=O)N[C@@H]1C(=O)N2[C@@H]1SC(C)(C)[C@@H]2C(=O)O", "primary rat microglia", "0%"],
  ["OC[C@@H](O)[C@@H](O)CO", "primary rat microglia", "1%"],
  ["CN(C(=O)C(Cl)Cl)c1ccc(OC(=O)c2ccco2)cc1 [Diloxanide Furoate]", "primary rat microglia", "1%"],
  ["CN1CCN(C(=O)O[C@H]2c3nccnc3C(=O)N2c2ccc(Cl)cn2)CC1", "primary rat microglia", "0%"],
  ["CCOc1cc(C=O)ccc1O", "primary rat microglia", "0%"],
  ["COc1ccc2c(c1)[C@]13CCCC[C@@H]1[C@H](C2)N(C)CC3", "primary rat microglia", "1%"],
  ["N=C(N)N1CCc2ccccc2C1", "primary rat microglia", "1%"],
  ["COC(=O)CCc1ccc(OCC(O)CNC(C)C)cc1 (stereo not drawn) [Esmolol, Esmolol Hydrochloride]", "primary rat microglia", "1%"]
]}

----------
Fibrin % cell toxicity for assorted compounds
# Tested on: primary rat microglia
# protocol.notes: Cell toxicity (dead cells, size <150 μm2) in coated fibrin (cFib) assay;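 as to Fibrin % cell toxicity: share of dead cells sized under 150 µm2 at 10 µM in fibrin-stimulated microglia HTS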
# measurement.conditions: primary microglia HTS, fibrin stimulation; decreased size (<150 μm^2) as marker of toxicity
Counter-ions that a name gives are not always drawn.
experimental.readout: Fibrin % cell toxicity (%)

{"columns": ["compound", "units.of.measure", "test.value"],
 "data": [
  ["C[C@@H]1CN(c2c(F)c(F)c3c(=O)c(C(=O)O)cn(C4CC4)c3c2F)C[C@H](C)N1", "%", 0],
  ["CC[N+](C)(CC)CCOC(=O)C(O)(c1ccccc1)C1CCCCC1 (stereo not shown)", "%", 1],
  ["CCN(CC)CCOC(=O)C(Cc1cccc2ccccc12)CC1CCCO1 (stereo not shown) [Nafronyl Oxalate]", "%", 1],
  ["CN1C(C(=O)Nc2ccccn2)=C(O)c2sc(Cl)cc2S1(=O)=O", "%", 0],
  ["COc1ccc(C(=O)c2ccccc2)c(O)c1", "%", 0],
  ["NCCc1cc[nH]n1 [Betazole hydrochloride, reference compound]", "%", 1],
  ["Cc1cnc(NC(=O)C2=C(O)c3ccccc3S(=O)(=O)N2C)s1", "%", 1],
  ["C[CH2][Hg][S]c1ccccc1C(=O)O", "%", 92],
  ["COC(=O)C1=C(C)NC(C)=C(C(=O)OCCN(C)Cc2ccccc2)C1c1cccc([N+](=O)[O-])c1 (stereo not shown)", "%", 0],
  ["C[C@@H]1C/C=C/C=C/C=C/C=C/[C@H](O[C@@H]2O[C@H](C)[C@@H](O)[C@H](N)[C@@H]2O)C[C@@H]2O[C@](O)(C[C@@H](O)C[C@H]3O[C@@H]3/C=C/C(=O)O1)C[C@H](O)[C@H]2C(=O)O", "%", 1],
  ["NC(=O)c1cc([N+](=O)[O-])cc([N+](=O)[O-])c1 [Nitromide]", "%", 0],
  ["CN1CCN(C2=Nc3ccccc3Oc3ccc(Cl)cc32)CC1", "%", 0],
  ["CCCCC(CC)COC(=O)c1ccccc1O (stereo not shown) [Octisalate]", "%", 0],
  ["CC(C)[C@H]1CC[C@H](C(=O)N[C@H](Cc2ccccc2)C(=O)O)CC1 [Nateglinide]", "%", 1],
  ["CC[C@@H](C(=O)[C@@H](C)[C@@H](O)[C@H](C)[C@@H]1O[C@@H]([C@@H](CC)C(=O)O)CC[C@@H]1C)[C@H]1O[C@]2(C=C[C@@H](O)[C@]3(CC[C@@](C)([C@H]4CC[C@](O)(CC)[C@H](C)O4)O3)O2)[C@H](C)C[C@@H]1C [Salinomycin, sodium, reference compound]", "%", 3],
  ["CC(=O)O[C@]1(C(C)=O)CC[C@H]2[C@@H]3C=C(Cl)C4=CC(=O)CC[C@]4(C)[C@H]3CC[C@@]21C [Chlormadinone acetate, reference compound]", "%", 1]
]}

----------
# Tested on: fibrin- and LPS-induced microglia activation
# protocol.notes: cells
# Type: cell-based, rat
# measurement.conditions: quadrant by fibrin and LPS inhibition, HTS at 10 μM
Counter-ions that a name gives are not always drawn.

{"columns": ["compound", "Quadrant (FIG. 5b)"],
 "data": [
  ["NCC(CC(=O)O)c1ccc(Cl)cc1 (racemic) [(±)-baclofen, Baclofen]", "Q4"],
  ["CC(=O)Nc1cccc(O)c1 [3-acetamidophenol]", "Q4"],
  ["NC12CC3CC(CC(C3)C1)C2 [Amantadine]", "Q4"],
  ["COc1cc2nc(N(C)CCCNC(=O)C3CCCO3)nc(N)c2cc1OC.Cl (stereo not shown) [Alfuzosin Hydrochloride, Alfuzosin]", "Q4"],
  ["CN(C)C(=O)Oc1cc(OC(=O)N(C)C)cc(C(O)CNC(C)(C)C)c1 (stereo not shown) [Bambuterol]", "Q4"],
  ["C[C@@H]1[C@H](O)[C@@H](C)/C=C/C=C/C=C/C=C/C=C/C=C/C=C/[C@H](O[C@@H]2O[C@H](C)[C@@H](O)[C@H](N)[C@@H]2O)C[C@@H]2O[C@](O)(C[C@@H](O)C[C@@H](O)[C@H](O)CC[C@@H](O)C[C@@H](O)CC(=O)O[C@H]1C)C[C@H](O)[C@H]2C(=O)O [Amphotericin B]", "Q4"],
  ["O=C(N/N=C/c1ccc([N+](=O)[O-])o1)c1ccc(O)cc1 [Nifuroxazide]", "Q2"],
  ["COc1ccc2c(c1)c(CC(=O)OCC(=O)O)c(C)n2C(=O)c1ccc(Cl)cc1 [Acemetacin]", "Q4"],
  ["C/C(=C(\\CCOP(=O)(O)O)SC(=O)c1ccccc1)N(C=O)Cc1cnc(C)nc1N [Benfotiamine]", "Q4"],
  ["NCCS(=O)(=O)O [2-Aminoethanesulfonic Acid]", "Q4"],
  ["Cc1c(N(C)C)c(=O)n(-c2ccccc2)n1C [Aminophenazone]", "Q4"],
  ["O=C(CCCCCCC(=O)Nc1ccccc1)NO [Vorinostat]", "Q2"],
  ["CNCC[C@@H](Oc1ccccc1C)c1ccccc1 [Atomoxetine Hydrochloride]", "Q4"],
  ["CCOC(=O)OC(C)OC(=O)[C@@H]1N2C(=O)[C@@H](NC(=O)[C@H](N)c3ccccc3)[C@H]2SC1(C)C (stereo partly shown) [Bacampicillin Hydrochloride]", "Q4"],
  ["C=C1/C(=C\\C=C2/CCC[C@]3(C)[C@@H]([C@H](C)CCCC(C)C)CC[C@@H]23)C[C@@H](O)C[C@@H]1O [Alfacalcidol]", "Q4"],
  ["N=c1ccn2c(n1)O[C@H]1[C@H](O)[C@@H](CO)O[C@H]12 [Ancitabine Hydrochloride]", "Q4"]
]}
